All figures here come from the supplement of paper PMC9170038.

Tested on: MS2 coat protein
assayOverview: apparent KD of MS2 coat protein, switch ON state; designed switch direction (-1 OFF switch, 1 ON switch): -1; higher = weaker reporter binding
setupConditions: FMN input: 0 or 200 uM; Eterna round: R93 (includes R88 designs)
attributeMeasured: apparent KD of MS2 coat protein (µM)

>>> endpointresult("AAAAAGGUAGGAUAUACGAAAAAAAAAGGUGAAAAAAAAAAACAUGAGGAUCACCCAUGUAGAAGGACCAAAAA [Ex 2 sub 1 70% 2]")
0.0393
>>> endpointresult("ACUGAUACAGGAUAUACGUGAGUGGAAAAAGUGUUUCCACUACAUGAGGAUCACCCAUGUAGAAGGGUAUCAGA [Ex2 Design 180: Random 6]")
0.0774
>>> endpointresult("AAUGGUGCAGGAUAUACAUGAGGAUCACCCAUGUAGAUCAGACAUAUGGUCGAAACAUGUAGAAGGGCACCAAA [Ex 3May 54]")
0.112
>>> endpointresult("AGGAAACAUGAGGAUCACCCAUGUGAGGAUAUGUAAAAGAAAAGAAAAGAAAGAAGAAACAGAAGGCACAAGAA [Nynetjer]")
0.0494
>>> endpointresult("GUGUACAGAGGAUAUACUAAAGCAUGGAAACAUGCAAGAUCACAUGAGGAUCACCCAUGUAGAAGGCUGUACAC [Ex2: 741]")
0.0623
>>> endpointresult("CAGGUAUGAGGAUAUACAUAGAUACAGACACAUGUUCAAGUACAUGAGGAUCACCCAUGUAGAAGGCAUAUAUG [Mat - Same state - Mayanna Mod - D106]")
0.0223

----------
Measured apparent KD of K4 kissing-loop reporter accompanies every entry in the list below.
Test system: K4 kissing-loop RNA reporter;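 note: bound reporter read as fluorescence of individual clusters on recovered sequencing chips by microscopy, with normalized cluster intensities fitted with a binding model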
assayOverview: apparent KD of K4 kissing-loop reporter; higher = weaker reporter binding
setupConditions: Eterna round: R107; input ligand: none
attributeMeasured: apparent KD of K4 kissing-loop reporter (µM)

>>> endpointresult("AGUACGGACACGGCCGCCACUCAGAAGAAGACAGUAGUGAUGUUACUGAUGGUGAGAAUAAUAAAGAGGACCGGGUGUCGUGCAA [#05 K4 Tryptophan B Same State]")
0.286
>>> endpointresult("GCAGUGAUGUUGCUGAUGUGCAGUGGUAGUCGAGGACCGGUACGGCCGCCACUCGGUGAGAAUUUGUUAAUACAUCGAUAAGUGA [XVI]")
0.788
>>> endpointresult("GGCCCGGGCUCGGCCGCCACUCCCUCGUACCGCAAGGUAUGAUACCGAGUGAUGUUCGGUUGGAGGAGGACCGGGAGCCCGGGCC [#2 Exclusion - Tryptophan B Attempt #6 (HarryS)]")
0.106
>>> endpointresult("GUAGCACAGUCGGCCGCCACUGUCGGUUCUCCAGUGAUGUUGGAGUUAGUUCGUCGCAGUUCAAACAGGACCGGGACCAUUCCUU [theeternabot_exclusion_KL_Trp_B_26]")
0.127
>>> endpointresult("AGAUAGGGCUGAAGGAGCGUCGGAGAAGAGAAGAAGAAAUCCAGUGAUGUUGGAUAAAUCCGACAGGUAGGUCGCAGUUUUAUGA [hbob_SS_Arginine_B_2t137]")
0.115
>>> endpointresult("CAUUCAGUGAUGUUGGAAGGCGAGCGGGAUACCAGCGGAGACUCACGCCCUUGGCAGCCCACAUAUCCCAGGUAGAUAAUAGUUC [Same State - Theophylline A (Freestyle 6)]")
0.203
>>> endpointresult("UGACAUUGCUCAGAUACCAGACAUGAGCAUCAGCCAUGUGCCAAAUAAACGUACAUAAAUGUCCCUUGGCAGCUGAGCAAUGUCU [TheoBX 11]")
0.0383
